Origin of measurements: the supplement of paper PMC10065799

target: Fyn (UniProt P06241)
Sequence (P06241 whole entry, looked up): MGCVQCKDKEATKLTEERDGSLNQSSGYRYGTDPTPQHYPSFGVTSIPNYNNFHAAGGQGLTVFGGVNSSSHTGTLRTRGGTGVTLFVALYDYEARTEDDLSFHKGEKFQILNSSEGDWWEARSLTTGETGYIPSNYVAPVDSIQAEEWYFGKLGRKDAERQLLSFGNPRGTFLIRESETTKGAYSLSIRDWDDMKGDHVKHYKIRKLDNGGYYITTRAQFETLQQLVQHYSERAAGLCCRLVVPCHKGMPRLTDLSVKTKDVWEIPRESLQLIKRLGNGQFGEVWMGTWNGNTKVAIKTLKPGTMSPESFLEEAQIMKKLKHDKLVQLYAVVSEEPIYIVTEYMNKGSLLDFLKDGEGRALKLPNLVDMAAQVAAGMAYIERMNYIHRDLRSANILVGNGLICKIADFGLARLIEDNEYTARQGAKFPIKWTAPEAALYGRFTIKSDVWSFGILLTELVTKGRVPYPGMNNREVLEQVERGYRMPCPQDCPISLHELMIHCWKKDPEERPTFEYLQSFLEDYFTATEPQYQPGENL
assay_comment: phosphorylation enrichment, bacterial display (enrichment ratio); higher = better substrate or ligand; peptides without Tyr show the background
Overview of recorded phosphorylation enrichment for various sequences

residue_sequence	phosphorylation enrichment
TAIFIYIRPKA [OR10C1_Y258_L255I]	0.615
EFKKHYGYSLY [ANXA3_Y295]	0.433
LLANAYIFDVQ [L1CAM_Y418_V421D_YF]	1.09
DAAEDYAEGVC [DHODH_Y194_R199C]	0.566
ELPEKYSQNIC [PKP2_Y626_Y631C]	0.497
HNGVSYYINLC [IGF2R_Y2024]	0.581
LFSGDCFRIQG [DDR2_Y740_Y740C_YF]	0.472
VYYGSYSCPYG [NKAP_Y104_R106C]	8.17
LRYEVYGGENE [STOX1_Y610]	0.615
SNKELYEKYMI	0.593
ECKLLYSRKEG [PTPN11_Y263]	0.446
GYDHSYYFIAT [ESD_Y262]	1.41
GFILMYDITNK [RAB3C_Y110_E115K]	0.529
ALLTKYSRSSM [DSCC1_Y374_H376R]	0.465
HSVLNYGVCVC [JAK2_Y613_L609S]	0.564
NFRNTYVNANE [KCNH2_Y475_T473N]	0.404
KSVEEYANCHL [TF_Y593_P589S]	0.458
PSRKDYETYQS [CTNND2_Y1154_P1159S]	0.543
NGLVACKDGKL [PMM2_Y76_Y76C]	0.416
ADRNHYRRFRR [YBX1_Y145_P149R_YF]	0.57
FQHLRYIKQLG [SAMHD1_Y146_R143H]	0.393
ADDSYYTARSA [ZAP70_Y493]	0.623
ASYGPNTRVQS [FOXL2_Y258_Y258N]	0.41
IHETTHNSIMK [ACTA1_Y281_Y281H]	0.43
RELGEYALAEF [ALDH1A3_Y492_YF]	0.77
LQKPMYEVQWK [KIT_Y553]	0.81
TEVIWYKGDEE	0.445
EEKKKYYDAKI [CASP5_Y103_T106A]	0.371
PGQRVYVVAES [SHH_Y316_R321S]	0.538
PFQGAYLKINK [MYO1B_Y967_E969K]	0.582
MKALGYFAVGT [OPA1_Y498_V502G]	0.432
EAMPDYKKQLR [SPATA18_Y229_S227P]	0.309
FTFNSYFMHWV [IGHV1-46_Y51_T49N_YF]	0.608
PGAGHYEDTIL [ALK_Y1604]	0.809
FVKEPYIQSRF [HIPK4_Y175_YF]	0.374
SFPREYGSQEG [RBM10_Y48_YF]	0.506
DRLPSYLDKVR [KRT12_Y139_A137P]	0.454
CTLLPYYSARV [DGKE_Y269]	0.464
TTASRYLKVSD [MYOM2_Y871_N869S]	0.373
CEQELYSQLVY [WAS_Y102_W97C]	6.54
LLREWYVQDPY [SIX3_Y225_L226V]	0.531
LANNEYFFQVC	1.4
INNKMYDPKMN [ENPP1_Y280_D276N]	0.397
GKPENYRRLDI [VHL_Y175_V170G]	0.295
KDFNKYVAFIE [KDM4B_Y31_YF]	0.513
MFVKSYTIHFS [F5_Y2153_YF]	0.482
VASIFYTLVIP [OR8K3_Y277]	0.502
WHFTFYNELRV [ACTC1_Y93_H90Y_YF]	0.413
SEELHYFVQNH [UQCRC2_Y207]	0.523
FSPPYYHRNCM [HGD_Y334_R330S]	0.505
RHPREYQDLLN [DES_Y388_L385P]	0.698
YGPPQYNIQYS [ERBB2IP_Y977]	0.549
TFGVAYRAKDK [CDK11B_Y453_V452A_YF]	0.437
LFHENYNAGTF [CFI_Y421_I416L_YF]	0.683
ISRASYFRKGG [ALK_Y1282_Y1278S_YF]	0.419
VNYQPYRKHKY [TEX37_Y28_D24N]	0.352
NRVEIYEKTVE [CYFIP1_Y108]	0.511
RFGKVYKGHLF [ROR2_Y488]	0.717

====

target: Fyn (UniProt P06241)
assay_comment: phosphorylation enrichment, bacterial display (enrichment ratio); higher = better substrate or ligand; peptides without Tyr show the background
Given measured phosphorylation enrichment, output label 1 if it is greater than or equal to 0.6 and label 0 if not.

residue_sequence	target	answer_label
LVSCTYQLARG [FGFR2_Y608]	Fyn (UniProt P06241)	label 0
AARVSYRLASG [DCHS1_Y1582]	Fyn (UniProt P06241)	label 0
ILIFHYAKGQP [MPZ_Y82_S78L]	Fyn (UniProt P06241)	label 0
FTNRNYDLDFD [MYC_Y12_YF]	Fyn (UniProt P06241)	label 0
SGEKPYKCSVC [ZNF543_Y283_E287V]	Fyn (UniProt P06241)	label 0
MFDKEYFSVHN [MET_Y1234_YF]	Fyn (UniProt P06241)	label 0
QLQTNYPSSDN [MAX_Y115]	Fyn (UniProt P06241)	label 0
RRGMPYGGHGD [TGM1_Y312_R315H]	Fyn (UniProt P06241)	label 1
QDRTFYERVRT [SPEN_Y633_S635R_YF]	Fyn (UniProt P06241)	label 0
DIPIRYSIMGV [CDH4_Y205_T208M]	Fyn (UniProt P06241)	label 0
GLRSYYETSKM [MAGED2_Y449]	Fyn (UniProt P06241)	label 0
VNFDFYTVNLG [GFPT1_Y367_D366Y_YF]	Fyn (UniProt P06241)	label 1
ALEHKYWALGQ [MAP1A_Y1555_Q1553H]	Fyn (UniProt P06241)	label 1
QEGPEYWDRNT [HLA-B_Y83]	Fyn (UniProt P06241)	label 1

====

target: Grb2 SH2 (UniProt P62993)
Sequence (P62993 whole entry, looked up): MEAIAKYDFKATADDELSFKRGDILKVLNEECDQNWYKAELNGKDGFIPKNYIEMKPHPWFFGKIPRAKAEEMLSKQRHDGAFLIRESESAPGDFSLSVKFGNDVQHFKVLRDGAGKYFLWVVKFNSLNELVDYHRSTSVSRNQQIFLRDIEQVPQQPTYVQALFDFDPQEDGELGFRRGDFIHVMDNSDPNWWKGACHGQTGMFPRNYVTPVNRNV
assay_comment: SH2 binding enrichment of the phosphorylated peptide, bacterial display (enrichment ratio); higher = better substrate or ligand; peptides without Tyr show the background

residue_sequence	target	SH2 binding enrichment
LLVVLYKYRCY [PSEN1_Y154]	Grb2 SH2 (UniProt P62993)	1.17
LLVVLNKFRCF [PSEN1_Y154_Y154N_YF]	Grb2 SH2 (UniProt P62993)	1.7
VSAPEYGPKLK [TBC1D14_Y46_L41V]	Grb2 SH2 (UniProt P62993)	0.876
NIISFYLSRDP [CTSD_Y232_F229I]	Grb2 SH2 (UniProt P62993)	1.59
GYYDLYGGEKF [PTPN11_Y66_D61G]	Grb2 SH2 (UniProt P62993)	0.939
TGNGYYFRVFS [MYBPC3_Y1136_I1131T]	Grb2 SH2 (UniProt P62993)	0.87
KPRKPYTIKKP [BRD2_Y715]	Grb2 SH2 (UniProt P62993)	1.85

====

Overview of recorded SH2 binding enrichment for various sequences
target: Grb2 SH2 (UniProt P62993)
assay_comment: SH2 binding enrichment of the phosphorylated peptide, bacterial display (enrichment ratio); higher = better substrate or ligand; peptides without Tyr show the background

residue_sequence	SH2 binding enrichment
MENFIYESMRY [CYP19A1_Y361]	0.819
KVKPIYFHTQG [AR_Y916]	1.59
VNFDFYTVNLG [GFPT1_Y367_D366Y_YF]	1.03
SLTGAYASGIP [POM121C_Y378_T379A]	0.732
SGSIHYSCVPR [GLB1_Y57_R59C]	0.734
ARIVDYNIIGW [MYH7_Y588_G584R]	0.735
EEGNPYYSSTR [MCCC2_Y520_A524T]	0.82
DIPIRYSIMGV [CDH4_Y205_T208M]	0.894
GLDGSYLPRDS [SH2D1A_Y29_L31P]	0.879
AARVSYRLASG [DCHS1_Y1582]	0.842
LSGVIYVILRK [PMP22_Y153]	1.89
INNKMYDPKMN [ENPP1_Y280_D276N]	0.707
HISGVYKLPPD [ANGPTL7_Y145_R140H]	0.957
TVVVPYEPPEV [TP53_Y220_S215T]	0.626
LFSLGYHQSRW [GANAB_Y396]	1.15
GESQGYDIMEP [MSH2_Y863]	0.683
ELTAKYLNFFQ [P3H4_Y181_YF]	3.9
TLQSMYGCDLG [HLA-B_Y123_V127L]	0.674
GGDVIYKGFED [NFU1_Y194]	0.822
KPRKLYTIKKP [BRD2_Y715_P714L]	1.07
RDLHTYIMPAH [PNMT_Y256_R254H]	0.609
ARAFIYAIIPA [ACKtide_2014]	1.03
QLRPGYFPIPV [BAG3_Y93_I94F]	0.697
IGEVVYQRAVM [GRIN2A_Y502]	0.752
IHFAIYLLKFS [ARMC9_Y107_YF]	1.69
NQELIYEGQRL [TBK1_Y354_R357Q]	0.537
SPYMLYQYLKQ [RPAP3_Y567_D564Y]	1.52
EEKKKYYDAKI [CASP5_Y103_T106A]	1.28
HFVDEYDQTIE [KRAS_Y32_P34Q]	0.973
RHPLEYLRQYP [NARS2_Y138]	1.38
VNFQPYRKHKF [TEX37_Y28_D24N_YF]	0.693
SSFSRYIMMPN [LEF1_Y114_G113R_YF]	0.73
CTTIHYNYMFN [TP53_Y234_C238F]	0.951
GYDHSYYFIAT [ESD_Y262]	0.702
AYRHGYFDEEM [PLEC_Y2971_R2969H]	0.893
APRKVYDTRDD [ZFPL1_Y215]	0.84
MARDIYQASYY [LTK_Y672_R673Q]	1.12
PIPAAYNKYDQ [CDC73_Y290_R292K]	0.39
HMEAVYIDIAD [PITPNA_Y140_V136M]	1.23
DPLLTHRFPPK [LMNA_Y481_Y481H]	0.834
HNLNYYKKTTN [FGFR3_Y648_D646N]	0.738
LVMFIYAISGM [SCN1A_Y1684_F1687S]	0.792
FVKEPYIQSRF [HIPK4_Y175_YF]	0.942
LTFDEYRNNSQ [ANXA3_Y216_I219N]	0.654
RFGKVYKGHLF [ROR2_Y488]	1.13
GLRSYYETSKM [MAGED2_Y449]	0.839
CEHRGSLYLAI [TEK_Y897_Y897S]	0.795
GGFTWYCDGKK [PROS1_Y266_C265W_YF]	0.761
NTVLGYFIGRI [GARS1_Y408]	1.14
VPLLEYFRDIF [CDAN1_Y712_YF]	1.44
PTDSVYVMPTV [MYO7A_Y1668]	0.911
MKGEFYRFLAE [YWHAG_Y131_D129E_YF]	0.712
IHETTHNSIMK [ACTA1_Y281_Y281H]	0.736
DTDSSYCIPTA [GAB1_Y373]	0.95
FTFNSYFMHWV [IGHV1-46_Y51_T49N_YF]	1.12
CASQLCPRHKH [DCTN4_Y263_Y263C]	1.19
ALIKAYDKAVA [SMN1_Y43]	0.773
